- System: Nqo1 (NAD(P)H quinone dehydrogenase 1) mRNA, Nrf2 downstream molecule
- TEST: In vivo Nrf2 transcriptional activity measurement (Nqo1 mRNA in organs by qPCR)
- TEST_SETTINGS: Mus musculus, ip; C57BL/6J mice, Intraperitoneal, 15 mg/kg, 7 to 8 hours, lung; read-out: Nqo1 mRNA expression level ratio to non-administration group, Lung
- Description: Test Example 2: In Vivo Nrf2 Transcriptional Activity Measurement […]
OBSERVED_PROPERTY: fold induction at 15 mg/kg
Write no unit; give the number alone.

Sample answers from the record:
O=C(O)c1cc(F)c(-c2cccc3c2OCN(C(=O)c2c(Cl)cc(N4CC5(C4)CC4(C5)OCCCO4)cc2Cl)C3)cc1N1C2CCC1COC2    17
COC1CC2(C1)CN(c1cc(Cl)c(C(=O)N3COc4c(cccc4-c4ccc(C(=O)O)c(N5C6CCC5COC6)c4)C3)c(Cl)c1)C2    21
COC1CC2(C1)CN(c1cc(Cl)c(C(=O)N3COc4c(cccc4-c4cc(N5C6CCC5COC6)c(C(=O)O)cc4F)C3)c(Cl)c1)C2    20
COC1CC2(C1)CN(c1ccc(C(=O)N3COc4c(cccc4-c4cc(N5C6CCC5COC6)c(C(=O)O)cc4F)C3)c(Cl)c1)C2    6.1
CC1(C)COC2(CN(c3cc(Cl)c(C(=O)N4COc5c(cccc5-c5cc(N6C7CCC6COC7)c(C(=O)O)cc5F)C4)c(Cl)c3)C2)OC1    15

Next:
Query: Consider the compound `O=C(O)c1cc(F)c(-c2cccc3c2OCN(C(=O)c2c(Cl)cc(N4CC5(CN(CC(F)F)C5)C4)cc2Cl)C3)cc1N1C2CCC1COC2` and give its measured fold induction at 15 mg/kg.
Result: 11

Cited source for all entries: patent US20250171457A1
